system: PEO-1; assay: Excess HSA synergy score (sum over dose matrix of excess over highest single agent) (score (summed % response)); higher = less synergy / more antagonism (negative = synergy); conditions: 72 h; read-out: viability/apoptosis luminescence (CellTiter-Glo or Caspase3-Glo / not stated per table); matrix design: 6x6, 5-fold dilutions (primary screen)
Structures can show the parent of a compound that is named as a salt. The full ranking holds about 1,500 compounds; the median of “Excess HSA synergy score (sum over dose matrix of excess over highest single agent)” is about 43, and the lowest 2% start at about -900. For the sample, the lowest values were picked, then their nearest neighbours and some compounds at random.
Endpoint Label: Excess HSA synergy score

Summary line: CC[C@@]1([C@@H]2O[C@@H]([C@H]3O[C@@](O)(CO)[C@H](C)C[C@@H]3C)C[C@@H]2C)CC[C@H]([C@]2(C)CC[C@]3(C[C@H](O)[C@@H](C)[C@@H]([C@@H](C)[C@@H](OC)[C@H](C)C(=O)O)O3)O2)O1 [Monensin sodium salt] + CC[C@H](NC(=O)[C@H](C)NC)C(=O)N1C[C@@H](O)C[C@H]1Cc1c(-c2[nH]c3cc(F)ccc3c2C[C@@H]2C[C@H](O)CN2C(=O)[C@H](CC)NC(=O)[C@H](C)NC)[nH]c2cc(F)ccc12 , PEO-1, reported Excess HSA synergy score = -104

Item: C/C=C(/C)C(=O)O[C@H]1C(C)=C2[C@H]([C@@H]1OC(=O)CCCCCCC)[C@@](C)(OC(C)=O)C[C@H](OC(=O)CCC)[C@@]1(O)[C@H]2OC(=O)[C@@]1(C)O [Thapsigargin] + CC[C@H](NC(=O)[C@H](C)NC)C(=O)N1C[C@@H](O)C[C@H]1Cc1c(-c2[nH]c3cc(F)ccc3c2C[C@@H]2C[C@H](O)CN2C(=O)[C@H](CC)NC(=O)[C@H](C)NC)[nH]c2cc(F)ccc12 | System: PEO-1 | Excess HSA synergy score: -265

Item CO[C@H]1CC[C@@H](O[C@H]2C[C@H]([C@]3(C)CC[C@]4(C[C@H](O)[C@@H](C)[C@@H]([C@@H](C)/C=C(\C)C(=O)[C@H](C)C[C@H](C)C(=O)O)O4)O3)O[C@]3(O[C@@H]([C@H]4O[C@@](O)(CO)[C@H](C)C[C@@H]4C)C[C@@H]3C)[C@@H]2C)O[C@@H]1C [Nanchangmycin] + CC[C@H](NC(=O)[C@H](C)NC)C(=O)N1C[C@@H](O)C[C@H]1Cc1c(-c2[nH]c3cc(F)ccc3c2C[C@@H]2C[C@H](O)CN2C(=O)[C@H](CC)NC(=O)[C@H](C)NC)[nH]c2cc(F)ccc12 ; assay system PEO-1; Excess HSA synergy score reported as -308

Source: the supplement of paper PMC7765376
